Form field: ELISA Signal-blank (100 nM Fab) (one value per entry).
- assayed-target: T1, Recombinant Human DLL4 (human, UniProt Q9NR61 27-524)
- T1 construct: also called delta-like protein 4; rHuman DLL4
- assay-protocol: ELISA, DLL4 coated on plate, Fab at 100 nM, absorbance at 450 nm minus blank
Please give the numeric answer without any surrounding text.

| binder | value-type | endpoint-value |
| --- | --- | --- |
| Fab VH5-51_IGHD5-18*01>3_IGHJ4*01 G100K/G104T G24T/S28R/G35V (H:KT TRV) & V3-4_IGLJ1*01 S96A (Fab, V domains shown, Fab; expressed in E. coli with CH1 (Plasmid A, His6 and Flag tags) and lambda CL (Plasmid E); also called H:KT TRV & S96A) VH: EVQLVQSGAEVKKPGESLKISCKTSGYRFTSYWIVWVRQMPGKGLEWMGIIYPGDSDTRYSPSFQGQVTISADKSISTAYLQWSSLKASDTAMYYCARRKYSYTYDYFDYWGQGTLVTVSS VL: QTVVTQEPSFSVSPGGTVTLTCGLSSGSVSTSYYPSWYQQTPGQAPRTLIYSTNTRSSGVPDRFSGSILGNKAALTITGAQADDESDYYCVLYMGAGISYVFGTGTKVTVL | ELISA Signal-blank (100 nM Fab) | 0.436 |
| Fab VH5-51_IGHD5-18*01>3_IGHJ4*01 G100K/G104T G24T/S28R/G35V (H:KT TRV) & V3-4_IGLJ1*01 S25A (Fab, V domains shown, Fab; expressed in E. coli with CH1 (Plasmid A, His6 and Flag tags) and lambda CL (Plasmid E); also called H:KT TRV & S25A) VH: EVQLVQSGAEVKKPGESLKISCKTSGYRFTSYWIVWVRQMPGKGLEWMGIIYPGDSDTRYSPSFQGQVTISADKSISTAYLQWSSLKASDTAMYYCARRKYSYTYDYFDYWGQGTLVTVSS VL: QTVVTQEPSFSVSPGGTVTLTCGLASGSVSTSYYPSWYQQTPGQAPRTLIYSTNTRSSGVPDRFSGSILGNKAALTITGAQADDESDYYCVLYMGSGISYVFGTGTKVTVL | ELISA Signal-blank (100 nM Fab) | 0.483 |

Moving on to another binder below.
Inquiry: # ELISA Signal-blank (100 nM Fab) lookup, item Fab VH5-51_IGHD5-18*01>3_IGHJ4*01 G100K/G104T G24T/S28R/G35V (H:KT TRV) & V3-4_IGLJ1*01 T78S (Fab, V domains shown, Fab; expressed in E. coli with CH1 (Plasmid A, His6 and Flag tags) and lambda CL (Plasmid E); also called H:KT TRV & T78S) VH: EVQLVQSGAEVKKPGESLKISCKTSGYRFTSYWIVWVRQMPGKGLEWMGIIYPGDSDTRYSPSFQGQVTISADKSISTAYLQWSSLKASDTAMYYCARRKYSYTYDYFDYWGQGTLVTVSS VL: QTVVTQEPSFSVSPGGTVTLTCGLSSGSVSTSYYPSWYQQTPGQAPRTLIYSTNTRSSGVPDRFSGSILGNKAALTISGAQADDESDYYCVLYMGSGISYVFGTGTKVTVL
Reply text: 0.093
